- PROTOCOL_SUMMARY: Plasma stability assay
- Type: in vitro ADME, rat
- CONDITION_DETAILS: rat, fresh rat plasma
Would you mind telling me the reported remaining at 1 h, 1 μM of each entry?
Numbers only, in %.

These recorded examples may help you get a feel for the data.
* CCCNc1nnc(Sc2ncc([N+](=O)[O-])s2)s1 [BI-90H6] | 35
* COCCNc1nnc(Sc2ncc([N+](=O)[O-])s2)s1 [BI-90H9] | 68
* COc1ccc(CCNc2nnc(Sc3ncc([N+](=O)[O-])s3)s2)cc1OC [BI-90H10] | 0

Enquiry: Tell us which remaining at 1 h, 1 μM value is on record for O=[N+]([O-])c1cnc(Sc2nnc(O)n2-c2ccc3c(c2)OCCO3)s1 [BI-78D3, reference compound]
Return: 42
